System: Staphylococcus aureus V41
Assay: agar-dilution MIC
Type: cell-based
Conditions: Staphylococcus aureus V41, penicillin-resistant strain; two values = two experiments; 2 median of five, 19 median of three
The entries below are paired with their reported MIC.
Please format your answer as a value with the unit trailing.

Lookup: # MIC lookup, item CCCCCCCCCCCCC(=O)N[C@@H](Cc1ccccc1)C(=O)N[C@@H](Cc1c[nH]c2ccccc12)C(=O)N[C@H](CC(N)=O)C(=O)N[C@@H](CC(=O)O)C(=O)N[C@@H]1C(=O)NCC(=O)N[C@@H](CCCN)C(=O)N[C@@H](CC(=O)O)C(=O)N[C@H](C)C(=O)N[C@@H](CC(=O)O)C(=O)NCC(=O)N[C@H](CO)C(=O)N[C@@H]([C@H](C)CC(=O)O)C(=O)N[C@@H](CC(=O)c2ccccc2N)C(=O)O[C@@H]1C [Compound 21]
Found: 0.5 µg/mL

Lookup: Ok, now CCCCCCCCCC(=O)N[C@@H](Cc1ccccc1)C(=O)N[C@@H](Cc1c[nH]c2ccccc12)C(=O)N[C@H](CC(N)=O)C(=O)N[C@@H](CC(=O)O)C(=O)N[C@@H]1C(=O)NCC(=O)N[C@@H](CCCN)C(=O)N[C@@H](CC(=O)O)C(=O)N[C@H](C)C(=O)N[C@@H](CC(=O)O)C(=O)NCC(=O)N[C@H](CO)C(=O)N[C@@H]([C@H](C)CC(=O)O)C(=O)N[C@@H](CC(=O)c2ccccc2N)C(=O)O[C@@H]1C [Compound 19]
Found: 0.5 µg/mL

Lookup: Try this molecule too: CCCCCCCCCCCC(=O)NCCCCCCCCCCC(=O)N[C@@H](Cc1c[nH]c2ccccc12)C(=O)N[C@H](CC(N)=O)C(=O)N[C@@H](CC(=O)O)C(=O)N[C@@H]1C(=O)NCC(=O)N[C@@H](CCCN)C(=O)N[C@@H](CC(=O)O)C(=O)N[C@H](C)C(=O)N[C@@H](CC(=O)O)C(=O)NCC(=O)N[C@H](CO)C(=O)N[C@@H]([C@H](C)CC(=O)O)C(=O)N[C@@H](CC(=O)c2ccccc2N)C(=O)O[C@@H]1C [Compound 3]
Found: 2 µg/mL

Lookup: Try CCCCCCCCC(=O)N[C@@H](Cc1ccccc1)C(=O)N[C@@H](Cc1c[nH]c2ccccc12)C(=O)N[C@H](CC(N)=O)C(=O)N[C@@H](CC(=O)O)C(=O)N[C@@H]1C(=O)NCC(=O)N[C@@H](CCCN)C(=O)N[C@@H](CC(=O)O)C(=O)N[C@H](C)C(=O)N[C@@H](CC(=O)O)C(=O)NCC(=O)N[C@H](CO)C(=O)N[C@@H]([C@H](C)CC(=O)O)C(=O)N[C@@H](CC(=O)c2ccccc2N)C(=O)O[C@@H]1C [Compound 18] next.
Found: 2 µg/mL

Lookup: Also CCCCCCCCCCCC(=O)NCCCCC(=O)N[C@@H](Cc1c[nH]c2ccccc12)C(=O)N[C@H](CC(N)=O)C(=O)N[C@@H](CC(=O)O)C(=O)N[C@@H]1C(=O)NCC(=O)N[C@@H](CCCN)C(=O)N[C@@H](CC(=O)O)C(=O)N[C@H](C)C(=O)N[C@@H](CC(=O)O)C(=O)NCC(=O)N[C@H](CO)C(=O)N[C@@H]([C@H](C)CC(=O)O)C(=O)N[C@@H](CC(=O)c2ccccc2N)C(=O)O[C@@H]1C [Compound 2] , if possible.
Found: 4 µg/mL
